experimental details: Mouse pharmacokinetic profiling
Assay type: in vivo, CD-1 mice
study conditions: female, CD-1, mouse, in vivo
Would you mind telling me the reported Kp at 5 h of each entry?
Numbers only.

// known answers, use as guide
INSERT INTO assay_data (substance_smiles, readout_number) VALUES
  ('CCCCCS(=O)(=O)Nc1ccc2[nH]nc(Cl)c2c1', 1.7),
  ('CCCCCS(=O)(=O)Nc1ccc2[nH]nc(C)c2c1', 1.3),
  ('CCCCS(=O)(=O)Nc1ccc2[nH]nc(Cl)c2c1', 0.6),
  ('O=S(=O)(CCCC(F)(F)F)Nc1ccc2[nH]nc(Cl)c2c1', 1.2);

Please examine the following record next.
Reported Kp at 5 h for `Cc1n[nH]c2ccc(NS(=O)(=O)CCCC(F)(F)F)cc12` : what is it?
0.95
